B1: NEK8 (parent)
chain: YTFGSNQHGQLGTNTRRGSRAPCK

# Variants of: B1
# experimentalDetails: protein stability index of a GFP-peptide fusion (GPS, HEK-293T) (PSI 1-6); higher = more stable;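 also: lentivirally expressed fusions sorted by FACS into six bins by GFP to DsRed ratio, PSI derived from sequencing read proportions per bin multiplied by bin number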
# appliedConditions: c terminus: a fixed tail appended
# protein stability index values compiled below

| sequenceVariant | protein stability index |
| --- | --- |
| L11Y | 3.95 |
| Q7E | 4.2 |
| K24H | 3.52 |
| G18I | 3.61 |
| K24T | 3.43 |
| Q10G | 4.08 |
| R16V | 3.99 |
| S19G | 3.91 |
| N14V | 2.06 |
| T13K | 3.79 |
